ASSAY_TARGET: Etv1 S334E (human, UniProt P50549 326-429, S334E)
Sequence (P50549 326-429 S334E): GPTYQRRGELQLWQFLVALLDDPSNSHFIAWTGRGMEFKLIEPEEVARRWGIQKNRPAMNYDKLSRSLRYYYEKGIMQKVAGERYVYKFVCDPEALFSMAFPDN
EXPERIMENT_NOTES: EMSA; 2 nM probe; 10 mM TCEP; saturates at 35% of probe; EMSA: 50 mM Tris-HCl pH 7.5, 50 mM NaCl, 2 mM MgCl2, 0.01% Tween 20, 5% glycerol, 1 h at room temperature; proteins reduced with 10 mM TCEP unless stated; 10% native PAGE
MEASUREMENT_PARAMETERS: protein: recombinant; tags: N-terminal His6 removed by TEV (leaves SM); blunt

BINDER: Etv1ALF/Etv1ALR EMSA probe (dsDNA) DNA 1: ATCTCACCGGAAGTGTAGCA DNA 2: TGCTACACTTCCGGTGAGAT
Kd / nM: 0.89
